- Test system: SN12C renal
- Assay Remarks: NCI tumour cell line growth inhibition, 48 h
Kindly state TGI for each of the entries shown.

Known TGI results, listed for orientation:
1. O=C1c2ccccc2-c2c1c1ccccc1c(=O)n2CCCCNCCCn1c2c(c3ccccc3c1=O)C(=O)c1ccccc1-2 ... 1.13 µM
2. Cc1c(N2CCCC2)cc2c(c1NC(=O)c1ccccc1Cl)C(C)(C)CC2(C)C ... 33.2 µM
3. CCc1ccc(N=Cc2cc(OC)c(OC)c(OC)c2)cc1 ... > 100 µM
4. CCOC(=O)NC(Nc1ncccn1)(C(F)(F)F)C(F)(F)F ... > 100 µM
5. COc1ccc(-c2cc(-c3cc(Cl)ccc3Cl)nc3n[nH]c(N)c23)cc1 ... > 100 µM

// for each compound below, give its TGI
1. COc1cc(Cc2cc3c(c(C(=O)O)c2Br)OCO3)cc(OC)c1OC
2. COC(=O)CCC(=O)C(=O)OC
3. COc1cccc2c1C(=O)C=CC2=O

1. > 100 µM
2. 62100 µM
3. 27.4 µM

What value of TGI has been recorded for this entry: CCCCON(OC(=O)c1ccccc1)C(=O)c1ccccc1 > 100 µM
